- measurement target: mitochondrial carnitine/acylcarnitine transporter (CACT) (Rattus norvegicus)
- Construct: gene Slc25a20; recombinant WT rat CACT expressed in E. coli, reconstituted in liposomes
- Sequence (P97521 2-301): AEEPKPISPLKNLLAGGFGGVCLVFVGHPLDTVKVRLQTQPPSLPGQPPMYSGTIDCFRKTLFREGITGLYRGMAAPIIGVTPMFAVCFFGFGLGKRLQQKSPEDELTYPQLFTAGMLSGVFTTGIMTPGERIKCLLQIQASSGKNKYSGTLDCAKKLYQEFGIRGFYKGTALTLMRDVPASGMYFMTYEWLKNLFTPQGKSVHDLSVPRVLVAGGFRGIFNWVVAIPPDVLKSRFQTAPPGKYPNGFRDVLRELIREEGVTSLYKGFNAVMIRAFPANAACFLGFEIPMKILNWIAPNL
- assay notes: [3H]carnitine/carnitine antiport in proteoliposomes; acid-activated omeprazole (non-activated compound inactive)
- Assay type: biochemical
quantity name: IC50 (µM)

- molecule: "COc1ccc2[nH]c([S+]([O-])Cc3ncc(C)c(OC)c3C)nc2c1 (stereo not shown)"
  unit annotation: "µM"
  observed result: 5.4
